Hey, just so you know, these numbers are from paper PMC6009911.

# target.or.test.system: CYP2A13 (Homo sapiens, UniProt Q16696)
# Construct: made in house
# Sequence (Q16696 1-494): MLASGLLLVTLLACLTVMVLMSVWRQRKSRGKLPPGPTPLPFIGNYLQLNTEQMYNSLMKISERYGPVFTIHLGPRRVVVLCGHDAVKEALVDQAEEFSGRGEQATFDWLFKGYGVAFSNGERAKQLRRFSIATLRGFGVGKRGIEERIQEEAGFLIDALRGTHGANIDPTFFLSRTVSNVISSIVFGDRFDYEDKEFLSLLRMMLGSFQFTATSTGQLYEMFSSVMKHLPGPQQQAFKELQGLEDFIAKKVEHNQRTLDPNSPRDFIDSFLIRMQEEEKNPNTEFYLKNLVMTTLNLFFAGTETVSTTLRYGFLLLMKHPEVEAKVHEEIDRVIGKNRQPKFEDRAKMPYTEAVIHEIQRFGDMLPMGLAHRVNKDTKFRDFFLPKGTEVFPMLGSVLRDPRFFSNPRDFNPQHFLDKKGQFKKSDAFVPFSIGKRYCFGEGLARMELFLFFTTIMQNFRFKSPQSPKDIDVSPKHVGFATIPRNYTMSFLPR
# experiment: Effects of trapping agents and dialysis on inactivation of CYP2A13
# Format: biochemical
# experimental.parameters: CYP2A13 inhibition reaction mixture, probe coumarin, compound 20 µM, read-out: Per cent remaining activity, Pre-incubation
measurement.kind: activity at 20 µM (%)
Numbers only, in %.

# query: activity at 20 µM of entry CC(=O)OCC1=C2/C(=C\C3(C)CCC(O)(O3)C(C)CC2OC(=O)/C(C)=C/CO)OC1=O (stereo not shown) [Hirsutinolide 8]
23.9
